- method-notes: Ross-Miles foam height (Examples 81-84)
- Assay type: physicochemical
- measurement-conditions: 0.1% in water
- Experimental: In the Ross-Miles method, 200 mL of a surfactant solution contained in a pipette of specified dimensions with a 2.9-mm-i.d. orifice is allowed to fall 90 cm onto 50 mL of the same solution contained in a cylindrical vessel maintained at a given temperature by means of a water jacket. The height of the foam produced in the cylindrical vessel is read immediately after all the solution has run out of the pipette and then again after a given amount of time. […]
measured-endpoint: Solubility

CCCCCCCCCCCCNC(=O)[C@H](O)[C@H](O)[C@@H](O)[C@@H](O)[C@H](O)CO [C12 D-Glycero-L-Mannoheptonamide] = Insoluble
CCCCCCCCCCCCNC(=O)[C@H](O)[C@@H](O)[C@@H](O)[C@H](O)CO [C12 D-Galactonamide] = Insoluble
CCCCCCCCCCCCCCCCCCNC(=O)[C@H](O)[C@@H](O)[C@H](O)[C@H](O)CO [C18 D-Gluconamide] = Insoluble

Values from patent US5624906A
